Each record here notes measured GI50.
- System: NCI-H226
- method summary: NCI tumour cell line growth inhibition, 48 h
The source made the active and inactive calls. Rule as the data show it: active = GI50 up to about 1.1 µM and inactive = higher.

Input: Return reported GI50; argument: C/C(=C/CC[C@]1(CO)CC[C@]2(C)[C@H](CC[C@@H]3[C@@]4(C)CC[C@H](OC5OC(CO)C(O)C(O)C5OC5OC(CO)C(O)C(O)C5O)C(C)(C)[C@@H]4CC[C@]32C)[C@H]1O)CO (some centres not stated)
Output: > 100 µM (inactive)

Input: Now try `COc1ccc(-n2c(C)nc3ccc(/N=C/c4ccccc4)cc3c2=O)cc1` .
Output: > 100 µM (inactive)

----------
- Tested on: HOP-92
- method summary: NCI tumour cell line growth inhibition, 48 h
Activity calls are given as the source filed them. No stated cut-off is given here; in the data, active = GI50 up to about 1.1 µM and inactive = higher.
Each record here notes measured GI50.

Examples from the recorded data:
COC(=O)[C@@]12CCCC(=O)[C@@H]1[C@H]1CCCC[C@H]12; 32.1 µM (inactive)
O=C1OC2(CCCCC2)C(Oc2ccc(Cl)cc2)=C1F; 20.4 µM (inactive)
S=c1c2cc(I)ccc2nc(S)n1Cc1ccccc1; 2.69 µM (inactive)
Cn1c(=O)c(C(=O)Nc2nc(C34CC5CC(CC(C5)C3)C4)cs2)c(O)c2ccccc21; 18.2 µM (inactive)
Nc1nc(Cl)cc(NCCCNc2cc(Cl)nc(N)n2)n1; > 100 µM (inactive)

Input: Return reported GI50; argument: `N=C(N)N/N=C/c1cnn(C(=N)N)c1`
Output: > 100 µM (inactive)

Input: Now try `Nc1nc(N)c(N=Nc2ccc([As](=O)(O)O)c(O)c2)c(N)n1` .
Output: 35.3 µM (inactive)

Input: Now try C[N+]1(CCN[N+]2(C)CCCCC2)CCc2ccccc2C1 (stereo not drawn) .
Output: > 100 µM (inactive)
